test: DVS water uptake / hygroscopicity; type: physicochemical; details: at 25° C./80% RH
Where a name gives a salt, the structure may show the parent alone.
measurement type: water uptake (DVS) (%)
Kindly provide the numeric value in % only, without the unit symbol.

Ask | What value of water uptake (DVS) has been recorded for this entry: CNc1cc(C)nc(Nc2ccc(OC)c(OC[C@H](O)CN3CCC3)c2)n1 [Compound 5R Hippurate Salt Type A]
Reply | 2.6

---

assay: DVS water uptake / hygroscopicity; format: physicochemical; conditions: conclusion from DVS where run
Structures can show the parent of a compound that is named as a salt.
measurement type: hygroscopicity (in words)

In the examples that follow, each entry is paired with its recorded hygroscopicity (in words).
CNCc1cnn(-c2cc(Nc3nc(C)cc(NC)n3)ccc2OC)c1 [Compound 6 freebase Type A] = hygroscopic
CNc1cc(C)nc(Nc2ccc(OC)c(OC[C@H](O)CN3CCCC3)c2)n1 [Compound 4R Freebase Type C] = hygroscopic
CNCc1cnn(-c2cc(Nc3nc(C)cc(NC)n3)ccc2OC)c1 [Compound 6 Hydrochloride Salt Type A] = very hygroscopic
CNc1cc(C)nc(Nc2ccc(OC)c(OC[C@H](O)CN3CCCC3)c2)n1 [Compound 4R Hydrochloride Salt Type A] = hygroscopic
CNc1cc(C)nc(Nc2ccc(OC)c(OC[C@H](O)CN3CCC3)c2)n1 [Compound 5R Hippurate Salt Type A] = hygroscopic
CNCc1cnn(-c2cc(Nc3nc(C)cc(NC)n3)ccc2OC)c1 [Compound 6 Adipate Salt Type B] = hygroscopic
CNc1cc(C)nc(Nc2ccc(OC)c(CNCCN3CCCC3)c2)n1 [Compound 3 Freebase Type A] = hygroscopic
CNc1cc(C)nc(Nc2ccc(OC)c(CNCCN3CCCC3)c2)n1 [Compound 3 Hydrochloride Salt Type B] = hygroscopic

Here is the next item to consider.
Ask | What value of hygroscopicity (in words) has been recorded for this entry: CNc1cc(C)nc(Nc2ccc(OC)c(OC[C@H](O)CN3CCCC3)c2)n1 [Compound 4R Hydrochloride Salt Type B]
Reply | very hygroscopic
